# TEST PROTOCOL: yeast display, Sf9 membrane polyspecificity reagent, FACS + sequencing; frameworks hold sequencing errors
VALUE KIND: polyreactivity (PSR sort gate)

Examples from the recorded data:
ITEM SEQUENCE: QVQLVESGGGLVQAGGSLRLSCAASGSIFSYYAMGWYRQAPGKERELVATISSVGSTNYADSVKGRFTISRDNPKNTVYLQMNSLKPEDTAVYYCAATIGHNGFDYWGQGTQVTVSS
polyreactivity (PSR sort gate): low polyreactivity
--
ITEM SEQUENCE: QVQLVESGGGLVQAGGSLRLSCAASGRIFYPNAMGWYRQAPGKERELVASISRGGPTSYADSVKGRFTISRDNAKNTVYLQINSLKPEDTAVYDCAADVAWYRYRSYYWGQGTQVTVSS
polyreactivity (PSR sort gate): high polyreactivity
--
ITEM SEQUENCE: QVQLVESGGGLVQAGGSLRLSCAASGFTFRVDAMGWYRQAPGKERELVAAISVRGDSTYYADSVKGRFTISRDNAKNTVYVQMNSLKPEDTAVYYSAAAVRTISRFTFYYWGQGTQVTVSS
polyreactivity (PSR sort gate): high polyreactivity
--
ITEM SEQUENCE: QVQLVESGGGLVQAGGSLRLSCAASGSTFAANAMGWYRQAPGKERELVAGISESGDRTYADSVKGRFTISRDNPKNTVYLQMNSLKPEDTAVYYCNVGANVYLLYFPSRGGVYDYGYWGQGTQVTVSS
polyreactivity (PSR sort gate): low polyreactivity
--
ITEM SEQUENCE: QDQLVESGGGLVQAGGSLRLSCAASGRILTKYAMGWYRQAPGKERELVAAISDSGTGTYYADSVKGRFTISRDNAKNTVYLQMNSLKPEDTAVYYCNAQTRRTRTYHGHKYGYWGQGTQVTVSS
polyreactivity (PSR sort gate): high polyreactivity

What does the data say about its polyreactivity (PSR sort gate)? Entry: QVQLVESGGGLVQAGGSLRLSCAASGFIFYSNAMGWYRQAPGKERELVAAISRRGGSTYYADSVKGRFTISRDNAKNTVYLQMNSLKPEDTAVYYCAARVVSGFDSWGQGTQVTVSS
high polyreactivity

# get_value(readout='polyreactivity (PSR sort gate)', item= QVQRVESGGGLVQAGGSLLLSCAASGSILYSYPMGWYRQAPGKERELVAAITGDGASTNYADSVKGRFTISRDNAKNTDYLQMNSLKPEDTAVYYCNAGRESDDVYEGSKRIGQFDYWGQGTLVTVSS )
low polyreactivity

What value of polyreactivity (PSR sort gate) has been recorded for this entry: QVQLVESGGGLVQAGGSLRLSCAASGIIFGGNAMGWYRQAPGKERELVATISNGGSTKYADSVKGRFTISRDNAKNTVYLQMNSLKPEYTAVYYCAAQPRVGSYVRSSRGRYNHWGQGTQVTVSS
high polyreactivity

Given the entry QVQLVESGGGLVQAGGSLRLSCAASGSTFRRNAMGWYRQSPGKERELVAAISWRGGSTYYADSVKGRFTISRDYAKNTVYLQMNSLKPEDTAVYYCNTYHPYWGSGFDYWGQGTQVTVSS , report its measured polyreactivity (PSR sort gate).
low polyreactivity

Looking for the measured polyreactivity (PSR sort gate) of QVQLVESGGGLVQAGGSLRLSCAASGRNFKYYTMGWYRQAPGKETELVAAISSGGRTKYADSVKGRFTISRDNAKNTVYLQMNSLKPEDTAVYYCNAGYPYPFYRSSQTGGYDYWGQGTQVTVSS , can you help?
high polyreactivity

Recorded polyreactivity (PSR sort gate) for QVQLVESGGGLVQAGGSLRLSCAASGFIFSANAMGWYRQAPGKERELVAVISWNGDGTYYADSVKGRFTISRDNAKNTVYLQMNSLKAEDTAVYYCAALSYAYRSQSRRYGYRFDYWGQGTQVTVSS , please?
high polyreactivity
